Target: human TLR7 (Homo sapiens)
Sequence (Q9NYK1 27-1049): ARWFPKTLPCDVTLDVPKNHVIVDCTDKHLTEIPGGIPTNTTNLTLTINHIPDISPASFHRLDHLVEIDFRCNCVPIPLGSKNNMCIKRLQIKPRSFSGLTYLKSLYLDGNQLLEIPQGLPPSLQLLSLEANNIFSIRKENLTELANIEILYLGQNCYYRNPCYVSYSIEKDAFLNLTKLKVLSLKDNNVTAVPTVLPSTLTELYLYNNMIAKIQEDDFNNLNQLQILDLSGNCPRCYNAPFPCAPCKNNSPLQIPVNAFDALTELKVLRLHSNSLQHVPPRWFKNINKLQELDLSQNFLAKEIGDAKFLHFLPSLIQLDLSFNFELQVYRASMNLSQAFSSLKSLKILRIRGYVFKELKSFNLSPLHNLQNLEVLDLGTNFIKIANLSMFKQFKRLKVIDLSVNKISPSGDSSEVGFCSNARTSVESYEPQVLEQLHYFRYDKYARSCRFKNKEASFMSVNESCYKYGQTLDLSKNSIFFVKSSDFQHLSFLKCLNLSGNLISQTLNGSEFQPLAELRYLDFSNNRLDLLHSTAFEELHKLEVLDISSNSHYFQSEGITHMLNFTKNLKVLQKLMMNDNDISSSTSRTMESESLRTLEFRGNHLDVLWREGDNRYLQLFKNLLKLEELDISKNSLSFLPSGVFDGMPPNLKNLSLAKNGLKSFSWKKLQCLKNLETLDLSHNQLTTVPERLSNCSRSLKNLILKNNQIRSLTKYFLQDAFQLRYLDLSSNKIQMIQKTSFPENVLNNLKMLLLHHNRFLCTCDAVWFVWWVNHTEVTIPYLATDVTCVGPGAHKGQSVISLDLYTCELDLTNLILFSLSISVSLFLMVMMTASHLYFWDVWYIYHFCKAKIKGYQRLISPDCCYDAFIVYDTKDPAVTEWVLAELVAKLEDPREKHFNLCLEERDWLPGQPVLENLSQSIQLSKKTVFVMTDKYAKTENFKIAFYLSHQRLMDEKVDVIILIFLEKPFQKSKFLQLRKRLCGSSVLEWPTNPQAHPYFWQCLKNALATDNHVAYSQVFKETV
Test: Human TLR7 agonist activity assay (HEK-Blue TLR7 SEAP reporter)
Conditions: HEK-Blue TLR7 cells, 18 h treatment, in some instances average of plural assays, read-out: hTLR7 EC50
parameter: log10 EC50 (log10 of the value in nM)
Hi team, quick reminder: these entries are log10 of EC50 (nM).

Quick check: log10 EC50 on human TLR7 (Homo sapiens), item CCCCNCc1ccc(Cn2ncc3nc(N)nc(NCCCC)c32)c(OC)c1 ?
2.02

Quick check: log10 EC50 on human TLR7 (Homo sapiens), item CCCCNc1nc(N)nc2cnn(Cc3ccc(CN(C)CCCO)cc3OC)c12 ?
1.64

Quick check: log10 EC50 on human TLR7 (Homo sapiens), item CCC[C@@H](CCO)Nc1nc(N)nc2cnn(Cc3ccc(CNC4CCC4)cc3OC)c12 ?
0.99

Quick check: log10 EC50 on human TLR7 (Homo sapiens), item CCC[C@@H](CCNC(C)=O)Nc1nc(N)nc2cnn(Cc3ccc(CNC4(C)CCOCC4)cc3OC)c12 ?
2.27

Quick check: log10 EC50 on human TLR7 (Homo sapiens), item CCC[C@@H](CCO)Nc1nc(N)nc2cnn(Cc3ccc(CN4CC(CCO)C4)cc3OC)c12 ?
1.45

Quick check: log10 EC50 on human TLR7 (Homo sapiens), item CCCCNc1nc(N)nc2cnn(Cc3ccc(Oc4ccc(CNCCOC)cc4)cc3OC)c12 ?
2.20

Quick check: log10 EC50 on human TLR7 (Homo sapiens), item CCCCNc1nc(N)nc2cnn(Cc3ccc(CNC4CC(O)C4)cc3OC)c12 (stereo not shown) ?
2.14

Quick check: log10 EC50 on human TLR7 (Homo sapiens), item CCCCNc1nc(N)nc2cnn(Cc3ccc(CNCC4CC(O)C4)cc3OC)c12 (stereo not shown) ?
3.41

Quick check: log10 EC50 on human TLR7 (Homo sapiens), item CCC[C@@H](CCO)Nc1nc(N)nc2cnn(Cc3ccc(Cn4ccnc4)cc3OC)c12 ?
1.18

Quick check: log10 EC50 on human TLR7 (Homo sapiens), item COCCNc1nc(N)nc2cnn(Cc3ccc(CNC4CCC4)cc3OC)c12 ?
2.98

Quick check: log10 EC50 on human TLR7 (Homo sapiens), item CCCCNc1nc(N)nc2cnn(Cc3ccc(CN4CCCC4)cn3)c12 ?
3.25

Quick check: log10 EC50 on human TLR7 (Homo sapiens), item CCCCNc1nc(N)nc2cnn(Cc3ccc(CC#N)cc3OC)c12 ?
2.40

Quick check: log10 EC50 on human TLR7 (Homo sapiens), item CCCCNc1nc(N)nc2cnn(Cc3ccc(Oc4ccc(CN5CCN(CCO)CC5)cc4)cc3OC)c12 ?
2.39

Quick check: log10 EC50 on human TLR7 (Homo sapiens), item CCC[C@@H](CCO)Nc1nc(N)nc2cnn(Cc3ccc(CN4CCN(CCO)CC4)cc3)c12 ?
2.57

Quick check: log10 EC50 on human TLR7 (Homo sapiens), item CCCCNc1nc(N)nc2cnn(Cc3ccc(Oc4ccc(C(C)(C)O)cc4)nc3)c12 ?
3.13

Quick check: log10 EC50 on human TLR7 (Homo sapiens), item CCC[C@@H](CCO)Nc1nc(N)nc2cnn(Cc3ccc(CN4CC(OC)C4)cc3)c12 ?
2.28

Quick check: log10 EC50 on human TLR7 (Homo sapiens), item CCC[C@@H](CCO)Nc1nc(N)nc2cnn(Cc3ccc(CN4CC(O)C4)cc3OC)c12 ?
0.98

Quick check: log10 EC50 on human TLR7 (Homo sapiens), item CCC[C@@H](CCO)Nc1nc(N)nc2cnn(Cc3ccc(CN4CC(OC)C4)cc3OC)c12 ?
0.08

Quick check: log10 EC50 on human TLR7 (Homo sapiens), item CCCCNc1nc(N)nc2cnn(Cc3ccc(CNCCO)cc3OC)c12 ?
1.97

Quick check: log10 EC50 on human TLR7 (Homo sapiens), item CCC[C@@H](CCO)Nc1nc(N)nc2cnn(Cc3ccc(CN4CC5CC4CN5)cc3OC)c12 (stereo partly shown) ?
2.38

Quick check: log10 EC50 on human TLR7 (Homo sapiens), item CCCCNc1nc(N)nc2cnn(Cc3ccc(CN4CCN(C)CC4)cc3OC)c12 ?
1.68

Quick check: log10 EC50 on human TLR7 (Homo sapiens), item CCC[C@@H](CCO)Nc1nc(N)nc2cnn(Cc3ccc(CO)cc3OC)c12 ?
1.44

Quick check: log10 EC50 on human TLR7 (Homo sapiens), item CCC[C@@H](CCO)Nc1nc(N)nc2cnn(Cc3ccc(CN4CCCNCC4)cc3OC)c12 ?
1.60

Quick check: log10 EC50 on human TLR7 (Homo sapiens), item CCC[C@@H](CCO)Nc1nc(N)nc2cnn(Cc3ccc(CNC4CCC4)cc3)c12 ?
1.76

Quick check: log10 EC50 on human TLR7 (Homo sapiens), item CCCCNc1nc(N)nc2cnn(Cc3ccc(CO)cc3OC)c12 ?
2.41

Quick check: log10 EC50 on human TLR7 (Homo sapiens), item CCC[C@@H](CCO)Nc1nc(N)nc2cnn(Cc3ccc(CN4CC(O)C4)cc3)c12 ?
3.05

Quick check: log10 EC50 on human TLR7 (Homo sapiens), item CCCCNc1nc(N)nc2cnn(Cc3ccc(CN4CCN(CCO)CC4)cc3OC)c12 ?
1.33

Quick check: log10 EC50 on human TLR7 (Homo sapiens), item CCCCNc1nc(N)nc2cnn(Cc3ncc(CNC4CCOCC4)cc3OC)c12 ?
3.06

Quick check: log10 EC50 on human TLR7 (Homo sapiens), item CCCCNc1nc(N)nc2cnn(Cc3ccc(CN4CC5CNCC5C4)cc3OC)c12 (stereo not shown) ?
2.01

Quick check: log10 EC50 on human TLR7 (Homo sapiens), item CCCCNc1nc(N)nc2cnn(Cc3ccc(CN4CC5CC4CN5)cn3)c12 (stereo not shown) ?
3.50

Quick check: log10 EC50 on human TLR7 (Homo sapiens), item CCC[C@@H](CCO)Nc1nc(N)nc2cnn(Cc3ccc(CNC4CC(C(C)(C)C)C4)cc3OC)c12 (stereo partly shown) ?
1.29
